Target: T1, Human Serum Albumin (human, UniProt P02768 25-609)
T1 construct: also called HSA
Assay: 19F NMR
Where no end group is shown, it is not given here. [ ]: non-standard residue; d: D form. Phe(4-F) = N[C@@H](Cc1ccc(F)cc1)C(=O)O
Test Readout: binding result

> print(dat)
                                     binder    test.readout  assay.result
1  GYSTKPQLAGGGNVTAPTPQG[Phe(4-F)]QHSGS (also called Braf01-pep) [B-Raf-01]  binding result    no binding
2  FGTVYKGKWGGGG[Phe(4-F)]STKPQLAGGGNVTAPTPQ (also called Braf02-pep) [B-Raf-02]  binding result    no binding
